# experimental_target: PD-1/PD-L1 interaction (PD-1-Ig / PD-L1-His) (Homo sapiens, UniProt Q9NZQ7)
# Construct: hPDL1(18-239)-TVMV-His; TVMV protease site linker (C); made in house; host or cells: HEK293T
# Sequence (Q9NZQ7 with tags, fused parts or gaps): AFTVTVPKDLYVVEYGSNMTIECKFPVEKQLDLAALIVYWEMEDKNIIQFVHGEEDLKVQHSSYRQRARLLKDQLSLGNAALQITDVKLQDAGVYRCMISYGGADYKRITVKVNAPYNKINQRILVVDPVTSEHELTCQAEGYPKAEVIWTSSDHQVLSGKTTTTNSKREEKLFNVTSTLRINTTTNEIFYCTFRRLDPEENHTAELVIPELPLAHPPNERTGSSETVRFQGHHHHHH
# protocol_text: PD-1/PD-L1 Homogenous Time-Resolved Fluorescence (HTRF) binding assay
# cond: IC50 range class; PD-L1-His 10 nM, PD-1-Ig 20 nM; read-out: Range or IC50
quantity: IC50

Cc1c(OCCCN(CC#N)C[C@H](O)CO)cccc1-c1cccc(OCCCN(CC#N)C[C@H](O)CO)c1C ... 20.1 to 90 nM

Reported IC50 ( Cc1c(OCCCN2CC[C@@H](O)C2)cccc1-c1cccc(OCCCc2ccccc2)c1 ) = 1000 to 10000 nM

Reported IC50 ( Cc1c(COc2cc(OCc3cncc(C#N)c3)c(CNC[C@H](C)C(=O)O)cc2Cl)cccc1-c1cccc(COc2cc(OCc3cncc(C#N)c3)c(CNC[C@H](C)C(=O)O)cc2Cl)c1C ) = 0.04 to 20 nM

Reported IC50 ( Cc1c(OCCCN2CCN(C)C(=O)C2)cccc1-c1cccc(OCCCN2CC[C@@H](O)C2)c1C ) = 90.1 to 1000 nM

Reported IC50 ( Cc1cc(OCc2cccc(-c3cccc(COc4cc(C)c(CNC(C)(CO)CO)cc4C)c3C)c2C)c(C)cc1CNC(C)(CO)CO ) = 0.04 to 20 nM

Reported IC50 ( Cc1c(OCCCNCCc2ccccc2)cccc1-c1cccc(OCCCN2CC[C@@H](O)C2)c1C ) = 90.1 to 1000 nM

Reported IC50 ( Cc1c(OCCCNCCc2cccnc2)cccc1-c1cccc(OCCCNCCc2cccnc2)c1C ) = 0.04 to 20 nM

====

# experimental_target: PD-1/PD-L1 interaction (PD-1-Ig / PD-L1-His) (Homo sapiens)
# Construct: hPDL1(18-239)-TVMV-His; TVMV protease site linker (C); made in house; host or cells: HEK293T
# protocol_text: PD-1/PD-L1 Homogenous Time-Resolved Fluorescence (HTRF) binding assay
# cond: IC50 range class; PD-L1-His 10 nM, PD-1-Ig 20 nM; read-out: Range or IC50
quantity: IC50

Some solved entries appear below for comparison.
Cc1c(OCCCN2CC[C@@H](O)C2)cccc1-c1cccc(C(=O)NCCN2CC[C@@H](O)C2)c1C ... > 10000 nM
Cc1cc(OCc2cccc(-c3cccc(COc4cc(OCc5cncc(C#N)c5)c(CN(C)[C@@H](CCO)C(=O)O)cc4Cl)c3C)c2C)c(Cl)cc1CN(C)[C@@H](CCO)C(=O)O ... 0.04 to 20 nM
Cc1c(OCCCN2CC[C@@H](O)C2)cccc1-c1cccc(OCCCN2CCC[C@H](O)C2)c1C ... 20.1 to 90 nM

Reported IC50 ( Cc1c(COc2cc(OCc3cc(F)cc(F)c3)c(CN[C@@H](CO)C(=O)O)cc2Cl)cccc1-c1cccc(COc2cc(OCc3cc(F)cc(F)c3)c(CN[C@@H](CO)C(=O)O)cc2Cl)c1C ) = 20.1 to 90 nM

Reported IC50 ( Cc1c(COc2cc(OCc3ccc(-n4cccn4)nc3)c(CN3CCCC[C@H]3C(=O)O)cc2Cl)cccc1-c1cccc(COc2cc(OCc3ccc(-n4cccn4)nc3)c(CN3CCCC[C@H]3C(=O)O)cc2Cl)c1C ) = 0.04 to 20 nM

Reported IC50 ( Cc1cc(OCCCN2CC[C@@H](O)C2)ccc1-c1cccc(OCCCCCN2CC[C@@H](O)C2)c1C ) = 1000 to 10000 nM

====

Listed below: IC50 values for each entry.
# experimental_target: PD-1/PD-L1 interaction (PD-1-Ig / PD-L1-His) (Homo sapiens, UniProt Q9NZQ7)
# Construct: hPDL1(18-239)-TVMV-His; TVMV protease site linker (C); made in house; host or cells: HEK293T
# protocol_text: PD-1/PD-L1 Homogenous Time-Resolved Fluorescence (HTRF) binding assay
# cond: IC50 range class; PD-L1-His 10 nM, PD-1-Ig 20 nM; read-out: Range or IC50

CCCN(Cc1cc(Cl)c(OCc2cccc(-c3cccc(COc4cc(OCc5cncc(C#N)c5)c(CN(CCC)C(CCO)C(=O)O)cc4Cl)c3C)c2C)cc1OCc1cncc(C#N)c1)C(CCO)C(=O)O (stereo not drawn) ... 0.04 to 20 nM

Known value: PD-1/PD-L1 interaction (PD-1-Ig / PD-L1-His) (Homo sapiens, UniProt Q9NZQ7) IC50 of the compound Cc1c(OCCCNCCn2cc(Cl)cn2)cccc1-c1cccc(OCCCN2CC[C@@H](O)C2)c1C equals 20.1 to 90 nM

====

# experimental_target: PD-1/PD-L1 interaction (PD-1-Ig / PD-L1-His) (Homo sapiens, UniProt Q9NZQ7)
# Construct: hPDL1(18-239)-TVMV-His; TVMV protease site linker (C); made in house; host or cells: HEK293T
# protocol_text: PD-1/PD-L1 Homogenous Time-Resolved Fluorescence (HTRF) binding assay
# cond: IC50 range class; PD-L1-His 10 nM, PD-1-Ig 20 nM; read-out: Range or IC50
pIC50: −log10 of the molar value.
quantity: pIC50

Cc1c(COc2cc(OCc3cncc(C#N)c3)c(CNCCC(=O)O)cc2Cl)cccc1-c1cccc(COc2cc(OCc3cncc(C#N)c3)c(CNCCC(=O)O)cc2Cl)c1C ... 7.70 to 10.40
Cc1c(COc2cc(OCc3cncc(C#N)c3)c(CNC3CCC[C@@H]3C(=O)O)cc2Cl)cccc1-c1cccc(COc2cc(OCc3cncc(C#N)c3)c(CN[C@@H]3CCC[C@@H]3C(=O)O)cc2Cl)c1C (stereo partly drawn) ... 7.70 to 10.40
Cc1c(COc2cc(OCc3cncc(C#N)c3)c(CN3CC(C(=O)O)C(c4ccccc4Cl)C3)cc2Cl)cccc1-c1cccc(COc2cc(OCc3cncc(C#N)c3)c(CN3CC(C(=O)O)C(c4ccccc4Cl)C3)cc2Cl)c1C (stereo not drawn) ... 6.00 to 7.05
Cc1c(NC(=O)NCCC(=O)O)cccc1-c1cccc(OCCCN2CC[C@@H](O)C2)c1C ... < 5.00
Cc1c(OCCCN2CCCC(CO)C2)cccc1-c1cccc(OCCCN2CC[C@@H](O)C2)c1C (mixture of isomers) ... 7.05 to 7.70

// next item, pIC50 requested
Reported pIC50 ( Cc1c(OCCCNCCc2ncn(C)c2Cl)cccc1-c1cccc(OCCCN2CC[C@@H](O)C2)c1C ) = 7.05 to 7.70

====

# experimental_target: PD-1/PD-L1 interaction (PD-1-Ig / PD-L1-His) (Homo sapiens, UniProt Q9NZQ7)
# Construct: hPDL1(18-239)-TVMV-His; TVMV protease site linker (C); made in house; host or cells: HEK293T
# protocol_text: PD-1/PD-L1 Homogenous Time-Resolved Fluorescence (HTRF) binding assay
# cond: IC50 range class; PD-L1-His 10 nM, PD-1-Ig 20 nM; read-out: Range or IC50
Listed below: IC50 values for each entry.

Some solved entries appear below for comparison.
Cc1c(NCCCN2CC[C@@H](O)C2)cccc1-c1cccc(OCCCN2CC[C@@H](O)C2)c1C [Example 3018] ... 90.1 to 1000 nM
CCCN(Cc1cc(Cl)c(OCc2cccc(-c3cccc(COc4cc(OCc5cncc(C#N)c5)c(CN(CCC)[C@@H](CCO)C(=O)O)cc4Cl)c3C)c2C)cc1OCc1cncc(C#N)c1)[C@@H](CCO)C(=O)O [Example 40750] ... 0.04 to 20 nM

// next item, IC50 requested
Reported IC50 ( N#Cc1cncc(COc2cc(OCc3cccc(-c4cccc(COc5cc(O)c(CNC(CCO)C(=O)O)cc5Cl)c4Cl)c3Cl)c(Cl)cc2CNC(CCO)C(=O)O)c1 (stereo not drawn) [Example 41180] ) = 0.04 to 20 nM

====

# experimental_target: PD-1/PD-L1 interaction (PD-1-Ig / PD-L1-His) (Homo sapiens)
# Construct: hPDL1(18-239)-TVMV-His; TVMV protease site linker (C); made in house; host or cells: HEK293T
# protocol_text: PD-1/PD-L1 Homogenous Time-Resolved Fluorescence (HTRF) binding assay
# cond: IC50 range class; PD-L1-His 10 nM, PD-1-Ig 20 nM; read-out: Range or IC50
quantity: IC50

Some solved entries appear below for comparison.
Cc1c(COc2cc(OCc3cncc(C#N)c3)c(CNC[C@H](O)C(=O)O)cc2Cl)cccc1-c1cccc(COc2cc(OCc3cncc(C#N)c3)c(CNC[C@H](O)C(=O)O)cc2Cl)c1C ... 0.04 to 20 nM
Cc1c(OCCCN2CCN(c3ccccn3)CC2)cccc1-c1cccc(OCCCN2CC[C@@H](O)C2)c1C ... 90.1 to 1000 nM

// next item, IC50 requested
Reported IC50 ( Cc1c(COc2cc(OCc3cncc(C#N)c3)c(CN3CCCC[C@H]3C(=O)O)cc2Cl)cccc1-c1cccc(COc2cc(OCc3cncc(C#N)c3)c(CN3CCCC[C@H]3C(=O)O)cc2Cl)c1C ) = 0.04 to 20 nM
